pKi: −log10 of the molar value.
System: Prostaglandin F2-alpha receptor (Homo sapiens) | Read-out: pKi | Origin: multiple publications
Sequence (P43088 whole entry): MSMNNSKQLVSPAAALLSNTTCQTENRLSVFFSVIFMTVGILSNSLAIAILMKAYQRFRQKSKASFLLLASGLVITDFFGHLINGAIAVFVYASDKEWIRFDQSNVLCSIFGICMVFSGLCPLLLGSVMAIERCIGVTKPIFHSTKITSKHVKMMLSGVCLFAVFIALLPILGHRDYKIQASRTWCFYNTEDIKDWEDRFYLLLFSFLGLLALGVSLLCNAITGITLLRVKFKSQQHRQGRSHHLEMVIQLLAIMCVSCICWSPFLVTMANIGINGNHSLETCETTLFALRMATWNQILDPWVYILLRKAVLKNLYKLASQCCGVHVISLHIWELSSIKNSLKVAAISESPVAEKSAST

# annotated cases, reported pKi shown
Mol | pKi
O=C(O)c1ccc(C2(NC(=O)c3cccc4ccn(Cc5ccc(C(F)(F)F)cc5)c34)CC2)cc1 | 5.19
O=C(O)c1ccc(CNC(=O)c2c(Cl)sc(Cl)c2Cc2cccc(Cl)c2)cc1 | < 6.20
O=C(O)C[C@H]1CCc2c1n(Cc1ccc(Cl)cc1)c1c(Br)cc(F)cc21 | 4.85
COc1ccc2cc(OCC3(C(=O)O)CN(C(=O)c4ccc(F)cc4)C3)ccc2c1 | < 5.00
Cc1sc(C)c(C(=O)NC2(c3ccc(C(=O)O)cc3)CC2)c1Cc1ccc(C(F)(F)F)cc1 | < 4.62

Data request: Specify pKi for `CC(=O)c1cc(S(C)(=O)=O)cc2c3c(n(Cc4ccc(Cl)cc4)c12)[C@@H](CC(=O)O)CC3` and stop.
Data returned: < 4.70
